// reported GPR139 Antagonist Activity Averaged Max % Response (±St. Dev.) for each item listed
- testTarget: GPR139 (Homo sapiens, UniProt Q6DWJ6)
- protocolNotes: GPR139 Antagonist titration assay (calcium detection, HEK-GPR139 cells, vs EC80 of S-JNJ-63533054)
- runConditions: activity relative to known control
Supply the numeric figure in %, leaving out any unit text.

In the examples that follow, each entry is paired with its recorded GPR139 Antagonist Activity Averaged Max % Response (±St. Dev.).
- compound: "CCOC(=O)N1CCC(NC(=O)c2cnn3c(O)c(Cc4cccc(C)c4)c(C)nc23)CC1"
  obsValue: 56.13
- compound: "O=C(CCC(=O)OCc1ccc(Br)cc1)Nc1ccc(F)cc1"
  obsValue: 90.45
- compound: "Cc1cc(C)c(NC(=O)c2ccc(Br)cc2)c(C)c1NC(=O)c1ccc(Br)cc1"
  obsValue: 58.56
- compound: "Cc1cc(I)ccc1NC(=O)CSc1cccs1"
  obsValue: 63.84
- compound: "COc1ccc(-c2cccc(NS(=O)(=O)c3ccc(I)cc3)c2)nn1"
  obsValue: 72.33

Dear colleague, please send me the reported GPR139 Antagonist Activity Averaged Max % Response (±St. Dev.) for CC(=O)N1N=C(c2ccc(C)cc2)CC1c1ccccc1Cl (stereo not shown) when you can.
79.69

Dear colleague, please send me the reported GPR139 Antagonist Activity Averaged Max % Response (±St. Dev.) for Cc1cccc(-n2ccnc2SCC(=O)Nc2cccc(C)c2C)c1 when you can.
87.64

Dear colleague, please send me the reported GPR139 Antagonist Activity Averaged Max % Response (±St. Dev.) for CCOC(=O)c1ccc2nc(C)c3c(c2c1)OC(C(C)(Cl)Br)C3 (stereo not shown) when you can.
82.15

Dear colleague, please send me the reported GPR139 Antagonist Activity Averaged Max % Response (±St. Dev.) for Cc1cc(C(F)(F)F)nc(SCC(=O)Nc2cccc(C(F)(F)F)c2)c1C#N when you can.
49.37

Dear colleague, please send me the reported GPR139 Antagonist Activity Averaged Max % Response (±St. Dev.) for O=C(CSc1nc(-c2ccccc2)cn1-c1ccc(F)cc1)Nc1ccccc1 when you can.
77.15

Dear colleague, please send me the reported GPR139 Antagonist Activity Averaged Max % Response (±St. Dev.) for CCCOC(=O)c1ccc(NC(=O)CSc2ccccc2)cc1 when you can.
82.77

Dear colleague, please send me the reported GPR139 Antagonist Activity Averaged Max % Response (±St. Dev.) for O=C(Nn1c(-c2cccc(Cl)c2)nc2ccccc2c1=O)c1cc(Br)ccc1Cl when you can.
82.91

Dear colleague, please send me the reported GPR139 Antagonist Activity Averaged Max % Response (±St. Dev.) for CC1=NN(Cc2ccc(Cl)cc2Cl)C(=O)C1 when you can.
80.83

Dear colleague, please send me the reported GPR139 Antagonist Activity Averaged Max % Response (±St. Dev.) for Cc1ccc(Oc2ccc(OCC(=O)N3C(C)CCCC3C)cc2)cc1 (stereo not shown) when you can.
80.54

Dear colleague, please send me the reported GPR139 Antagonist Activity Averaged Max % Response (±St. Dev.) for CCc1ccccc1NC(=O)CSc1nnc(-c2ccccc2)c(-c2ccccc2)n1 when you can.
81.12

###

- testTarget: UniProt Q6DWJ6
- Sequence (Q6DWJ6 1-353): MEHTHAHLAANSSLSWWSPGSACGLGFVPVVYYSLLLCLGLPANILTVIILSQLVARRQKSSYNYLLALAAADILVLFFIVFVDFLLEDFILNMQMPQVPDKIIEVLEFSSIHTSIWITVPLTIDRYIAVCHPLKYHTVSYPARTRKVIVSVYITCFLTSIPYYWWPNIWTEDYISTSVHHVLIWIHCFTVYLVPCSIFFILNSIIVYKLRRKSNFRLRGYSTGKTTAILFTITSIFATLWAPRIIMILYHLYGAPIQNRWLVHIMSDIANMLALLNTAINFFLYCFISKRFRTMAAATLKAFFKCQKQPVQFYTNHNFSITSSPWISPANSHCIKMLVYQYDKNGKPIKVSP
- protocolNotes: GPR139 Agonist titration / agonist counterscreen assay (calcium detection, HEK-GPR139 cells)
- Assay type: cell-based
- Parameters: expressed in transfected cells; host or cells: HEK Aequorin cells, Maxcyte transient transfection
- runConditions: GPR139 Agonist Activity; activity relative to known control
measuredAttribute: Averaged Max % Response (±St. Dev.) (%)
Supply the numeric figure in %, leaving out any unit text.

In the examples that follow, each entry is paired with its recorded Averaged Max % Response (±St. Dev.).
- compound: "O=C(Cc1cccc2ccccc12)Nc1nnc(-c2cccs2)o1 [SR-01000012264]"
  testTarget: "UniProt Q6DWJ6"
  obsValue: 85.12
- compound: "Cc1ccccc1-c1nc(C[S+]([O-])CC(=O)NC(C)CCc2ccccc2)c(C)o1 (stereo not drawn) [SR-01000129545]"
  testTarget: "UniProt Q6DWJ6"
  obsValue: 92.13
- compound: "Cn1c(CC(=O)NNC(=O)CSc2ccc3ccccc3c2)nc2ccccc21 [SR-01000068729]"
  testTarget: "UniProt Q6DWJ6"
  obsValue: 126.00
- compound: "CSc1cccc(NC(=O)C2C3C=CC4(O3)C2C(=O)N(C(C)c2ccccc2)C4C(=O)NC2CCCCC2)c1 (stereo not drawn) [SR-01000546462]"
  testTarget: "UniProt Q6DWJ6"
  obsValue: 107.13

Dear colleague, please send me the reported Averaged Max % Response (±St. Dev.) for O=C(NCCn1ccc2ccccc21)c1cccs1 [SR-01000124129] when you can.
84.79

Dear colleague, please send me the reported Averaged Max % Response (±St. Dev.) for Cc1cccc(NC(=O)Cn2ncc3c2-c2ccccc2OC3)n1 [SR-01000135038] when you can.
105.92

Dear colleague, please send me the reported Averaged Max % Response (±St. Dev.) for COc1cc(C(=O)NNC(=O)CCc2c[nH]c3ccccc23)ccc1OC(C)C [SR-01000068919] when you can.
93.45

Dear colleague, please send me the reported Averaged Max % Response (±St. Dev.) for O=C(CCc1ccccc1)NNC(=O)C12CC3CC(CC(C3)C1)C2 [SR-01000314474] when you can.
90.74

Dear colleague, please send me the reported Averaged Max % Response (±St. Dev.) for Cc1ccc(NC(=O)CSC2=C(C#N)C(c3ccc(F)cc3)CC(=O)N2)c(C)c1 (stereo not drawn) [SR-01000484494] when you can.
114.96
